Measured IC50 accompanies every entry in the list below.
Molecular target: Human HSP90 alpha (Homo sapiens, UniProt P07900)
Construct: made in house; host or cells: E. coli BL21 codon plus (Stratagene)
Experiment: Measurement of HSP90 enzyme inhibitory activity (ATPase, malachite green)
Format: biochemical
Details: purified human HSP90 alpha, 1 mM ATP added, 37° C., two hours; read-out: Enzyme inhibitory activity (IC50, μM) Human HSP 90α
Protocol: HSP90 enzyme inhibitory activity of the compounds of the present invention represented by formula (1) was measured by the following method. Among the 6-phenyl-N-phenyl-(1,3,5)triazin/(1,3)pyrimidin-2,4-diamine derivatives which are known LPAAT-β inhibitors, the following two compounds were used as comparative compounds, and their HSP90 enzyme inhibitory activities were measured similarly by the following method. […]
measured attribute: IC50 (µM)

# compound, assay target, measured result
records = [
    ("COc1ccc(Oc2nc(N)nc(-c3c(Cl)cc4c5c(cccc35)COC4)n2)cc1OC [Example 82]", "Human HSP90 alpha (Homo sapiens, UniProt P07900)", 1.4),
    ("Nc1nc(SCCC(=O)NCCO)cc(-c2c(Cl)cc3c4c(cccc24)COC3)n1 [Example 317]", "Human HSP90 alpha (Homo sapiens, UniProt P07900)", 1.3),
    ("NC(=O)OCCSc1cc(-c2c(Cl)cc3c4c(cccc24)COC3)nc(N)n1 [Example 325]", "Human HSP90 alpha (Homo sapiens, UniProt P07900)", 2.1),
    ("NC(=O)CCSc1cc(-c2c(Cl)cc3c4c(cccc24)COC3)nc(N)n1 [Example 316]", "Human HSP90 alpha (Homo sapiens, UniProt P07900)", 2.1),
    ("CC(=O)NCCSc1nc(N)nc(-c2cc(-c3ncccn3)c(Cl)cc2Cl)n1 [Example 25]", "Human HSP90 alpha (Homo sapiens, UniProt P07900)", 2.6),
    ("N#CCOc1cc(-c2nc(N)nc(SCCC(=O)N3CCOCC3)n2)c(Cl)cc1Cl [Example 63]", "Human HSP90 alpha (Homo sapiens, UniProt P07900)", 2),
    ("COc1cc(C(=O)N2CCN(C)CC2)ccc1Sc1nc(N)nc(-c2cc(OCC#N)c(Cl)cc2Cl)n1 [Example 15]", "Human HSP90 alpha (Homo sapiens, UniProt P07900)", 2),
    ("N#CCNC(=O)CSc1nc(N)nc(-c2c(Cl)cc3c4c(cccc24)COC3)n1 [Example 333]", "Human HSP90 alpha (Homo sapiens, UniProt P07900)", 1.9),
    ("Nc1nc(SCCCO)cc(-c2c(Cl)cc3c4c(cccc24)COC3)n1 [Example 326]", "Human HSP90 alpha (Homo sapiens, UniProt P07900)", 2.1),
    ("COC(=O)CSc1nc(N)nc(-c2c(Cl)cc3c4c(cccc24)COC3)n1 [Example 111]", "Human HSP90 alpha (Homo sapiens, UniProt P07900)", 1.1),
    ("NC(=O)CCCSc1cc(-c2c(Cl)cc3c4c(cccc24)COC3)nc(N)n1 [Example 324]", "Human HSP90 alpha (Homo sapiens, UniProt P07900)", 1.8),
]

* * *

Test system: HCT116 cells
Experiment: Measurement of cell growth inhibition (Cell Counting Kit-8, four days)
Type: cell-based
Conditions: Homo sapiens, HCT-116, 96 h; HCT116 colon cancer cell line, four days culture; read-out: Cell growth inhibitory activity (IC50, μM) HCT116
Description: Cell growth inhibitory activities of the compounds of the present invention represented by formula (1) were measured by the following method. Cells were maintained under conditions recommended by the provider of each cell line. […] Four days later, Cell Counting Kit-8 was added, and absorbance measurements were taken following the protocol included in the kit.
measured attribute: IC50

# structure as smiles, measured attribute, measured result
measured = [
    ("Nc1nc(SCCNC(=O)CO)cc(-c2c(Cl)cc3c4c(cccc24)COC3)n1", "IC50", "1.9 µM"),
    ("COCCNC(=O)CCSc1cc(-c2c(Cl)cc3c4c(cccc24)COC3)nc(N)n1", "IC50", "0.62 µM"),
    ("COCCNC(=O)CCSc1nc(N)nc(-c2c(Cl)cc3c4c(cccc24)COC3)n1", "IC50", "0.16 µM"),
    ("CC(=O)NCCCSc1nc(N)nc(-c2c(Cl)cc3c4c(cccc24)COC3)n1", "IC50", "0.11 µM"),
    ("Nc1nc(SCCNC(=O)CO)nc(-c2c(Cl)cc3c4c(cccc24)COC3)n1", "IC50", "0.49 µM"),
    ("Nc1nc(SCCCO)nc(-c2c(Cl)cc3c4c(cccc24)COC3)n1", "IC50", "0.12 µM"),
    ("CC(=O)NCCSc1cc(-c2c(Cl)cc3c4c(cccc24)COC3)nc(N)n1", "IC50", "0.93 µM"),
    ("NC(=O)CCCSc1nc(N)nc(-c2c(Cl)cc3c4c(cccc24)CSC3)n1", "IC50", "0.015 µM"),
    ("COc1ccc(OC)c(Sc2cc(-c3ccc(Cl)cc3Cl)nc(N)n2)c1", "IC50", "8.5 µM"),
    ("NC(=O)OCCSc1cc(-c2c(Cl)cc3c4c(cccc24)COC3)nc(N)n1", "IC50", "0.26 µM"),
    ("N#CCOc1cc(-c2cc(Sc3nc4ccccc4[nH]3)nc(N)n2)c(Cl)cc1Cl", "IC50", "1.1 µM"),
    ("CCOC(=O)c1cnc(Sc2cc(-c3cc(OCC#N)c(Cl)cc3Cl)nc(N)n2)[nH]1", "IC50", "5.3 µM"),
    ("Nc1nc(SCCCO)cc(-c2c(Cl)cc3c4c(cccc24)COC3)n1", "IC50", "0.52 µM"),
]
